meta.source: ChEMBL document CHEMBL4837226

Target: Tubulin
Experiment: Inhibition of tubulin polymerization (unknown origin) assessed as reduction in tubulin assembly preincubated for 15 mins followed by GTP addition by spectrophotometric method
pIC50: −log10 of the molar value.

{"columns": ["SMILES NOTATION", "pIC50"],
 "data": [
  ["COc1cc(C(=O)c2cn(-c3ccc(F)cc3)cc2-c2ncco2)cc(OC)c1OC", 5.85],
  ["COc1cc(C(=O)c2cn(-c3ccc(C)cc3)cc2-c2ccncc2)cc(OC)c1OC", 6.36],
  ["COc1cc(C(=O)c2cn(-c3cccc(C)c3)cc2-c2ccncc2)cc(OC)c1OC", 6.23],
  ["COc1cc(C(=O)c2cn(-c3cccc(C)c3)cc2-c2cccnc2)cc(OC)c1OC", 6.13],
  ["COc1cc(C(=O)c2cn(-c3ccc(C)cc3)cc2-c2nccs2)cc(OC)c1OC", 6.25],
  ["COc1cc(C(=O)c2cn(-c3ccc(F)cc3)cc2-c2ccco2)cc(OC)c1OC", 6.33],
  ["COc1cc(C(=O)c2cn(-c3ccc(C)cc3)cc2-c2ncco2)cc(OC)c1OC", 6.14],
  ["COc1cc(C(=O)c2cn(-c3ccc(C)cc3)cc2-c2ccccn2)cc(OC)c1OC", 6.34],
  ["COc1cc(C(=O)c2cn(-c3ccc(F)cc3)cc2-c2ccccn2)cc(OC)c1OC", 6.09],
  ["COc1cc(C(=O)c2cn(-c3ccc(F)cc3)cc2-c2ccsc2)cc(OC)c1OC", 6.26],
  ["COc1cc(C(=O)c2cn(-c3ccc(F)cc3)cc2-c2ccncc2)cc(OC)c1OC", 6.24],
  ["COc1cc(C(=O)c2cn(-c3cccc(C)c3)cc2-c2ccccn2)cc(OC)c1OC", 6.11],
  ["COc1cc(C(=O)c2cn(-c3ccc(C)cc3)cc2-c2cccnc2)cc(OC)c1OC", 6.19],
  ["COc1cc(C(=O)c2cn(-c3ccc(C)cc3)cc2-c2ccsc2)cc(OC)c1OC", 6.41],
  ["COc1cc(C(=O)c2cn(-c3cccc(C)c3)cc2-c2ccsc2)cc(OC)c1OC", 6.28],
  ["COc1cc(C(=O)c2cn(-c3ccc(C)cc3)cc2-c2ccoc2)cc(OC)c1OC", 6.33],
  ["COc1cc(C(=O)c2cn(-c3ccc(F)cc3)cc2-c2cccnc2)cc(OC)c1OC", 6.25],
  ["COc1cc(C(=O)c2cn(-c3cccc(C)c3)cc2-c2ccco2)cc(OC)c1OC", 6.25],
  ["COc1cc(C(=O)c2cn(-c3cccc(C)c3)cc2-c2nccs2)cc(OC)c1OC", 6.31],
  ["COc1cc(C(=O)c2cn(-c3cccc(C)c3)cc2-c2ncco2)cc(OC)c1OC", 6.14]
]}

* * *

Target: Tubulin
Assay: Inhibition of tubulin polymerization (unknown origin) assessed as reduction in tubulin assembly preincubated for 15 mins followed by GTP addition by spectrophotometric method
pIC50: −log10 of the molar value.

{"columns": ["SMILES NOTATION", "pIC50"],
 "data": [
  ["COc1cc(C(=O)c2cn(-c3ccc(F)cc3)cc2-c2nccs2)cc(OC)c1OC", 6.11],
  ["COc1cc(C(=O)c2cn(-c3ccc(C)cc3)cc2-c2ccco2)cc(OC)c1OC", 6.34],
  ["COc1cc(C(=O)c2cn(-c3cccc(C)c3)cc2-c2ccoc2)cc(OC)c1OC", 6.38],
  ["COc1cc(C(=O)c2cn(-c3ccc(F)cc3)cc2-c2ccoc2)cc(OC)c1OC", 6.42]
]}
